Test system: Bel-7402 hepatoma cell line
Assay: MTT antiproliferative assay
Type: cell-based, human
Conditions: Homo sapiens, Bel-7402; MTT, 72 h, mean ± SD of three experiments; read-out: IC50 Bel-7402
Method: The antiproliferative activity of 9a–i against four human cancer cell lines K562 leukemia cell line, MGC-803 gastric cancer cell line, CaEs-17 esophageal cancer cell line, and Bel-7402 hepatoma cell line, and human normal liver cells L-02 was evaluated by MTT assay (Table 2). MTT assay was developed to monitor mammalian cell survival and proliferation in vitro [32]. […]
value.kind: IC50 (nM)

compound	experimental.system	IC50 (nM)
C=C1C(=O)[C@@]23C(=O)O[C@H]4CCC(C)(C)[C@H]5[C@H](O)OC[C@@]45[C@@H]2CC[C@@H]1[C@H]3OC(=O)CCC(=O)OCCOc1no[n+]([O-])c1S(=O)(=O)c1ccccc1 [Compound 9a]	Bel-7402 hepatoma cell line	1330
C=C1C(=O)[C@@]23C(=O)O[C@H]4CCC(C)(C)[C@H]5[C@H](O)OC[C@@]45[C@@H]2CC[C@@H]1[C@H]3OC(=O)c1ccccc1C(=O)OCCOc1no[n+]([O-])c1S(=O)(=O)c1ccccc1 [Compound 9c]	Bel-7402 hepatoma cell line	830
C=C1C(=O)[C@@]23C(=O)O[C@H]4CCC(C)(C)[C@H]5[C@H](O)OC[C@@]45[C@@H]2CC[C@@H]1[C@H]3OC(=O)CCCC(=O)OCCCCOc1no[n+]([O-])c1S(=O)(=O)c1ccccc1 [Compound 9h]	Bel-7402 hepatoma cell line	1080

---

Tested on: Bel-7402 hepatoma cell line
Assay: MTT antiproliferative assay
Format: cell-based, human
Conditions: Homo sapiens, Bel-7402; MTT, 72 h, mean ± SD of three experiments; read-out: IC50 Bel-7402
pIC50: −log10 of the molar value.
value.kind: pIC50

compound	pIC50
C=C1C(=O)[C@@]23C(=O)O[C@H]4CCC(C)(C)[C@H]5[C@H](O)OC[C@@]45[C@@H]2CC[C@@H]1[C@H]3OC(=O)c1ccccc1C(=O)OCCCOc1no[n+]([O-])c1S(=O)(=O)c1ccccc1 [Compound 9f]	6.14

a = CC(=O)O[C@H]1C(=O)[C@@]2(C)[C@H]([C@H](OC(=O)c3ccccc3)[C@]3(O)C[C@H](OC(=O)[C@H](O)[C@@H](NC(=O)c4ccccc4)c4ccccc4)C(C)=C1C3(C)C)[C@]1(OC(C)=O)CO[C@@H]1C[C@@H]2O [Taxol, reference compound]
b = C=C1C(=O)[C@@]23C(=O)O[C@H]4CCC(C)(C)[C@H]5[C@H](O)OC[C@@]45[C@@H]2CC[C@@H]1[C@H]3OC(=O)CCCC(=O)OCCCOc1no[n+]([O-])c1S(=O)(=O)c1ccccc1 [Compound 9e]
Please indicate which entry, a or b , has the lower recorded pIC50 value. Record your answer as the label of the chosen record.
a

---

Test system: MGC-803 gastric cancer cell line
Test: MTT antiproliferative assay
Format: cell-based, human
Details: Homo sapiens, MGC-803, 72 h, MTT, 72 h, mean ± SD of three experiments; read-out: IC50 MGC-803
value.kind: IC50 (µM)

mol	experimental.system	IC50 (µM)
C=C1C(=O)[C@@]23C(=O)O[C@H]4CCC(C)(C)[C@H]5[C@H](O)OC[C@@]45[C@@H]2CC[C@@H]1[C@H]3OC(=O)CCC(=O)OCCCOc1no[n+]([O-])c1S(=O)(=O)c1ccccc1	MGC-803 gastric cancer cell line	1.5
C=C1C(=O)[C@@]23C(=O)O[C@H]4CCC(C)(C)[C@H]5[C@H](O)OC[C@@]45[C@@H]2CC[C@@H]1[C@H]3OC(=O)c1ccccc1C(=O)OCCCCOc1no[n+]([O-])c1S(=O)(=O)c1ccccc1	MGC-803 gastric cancer cell line	1.86
C=C1C(=O)[C@@]23C(=O)O[C@H]4CCC(C)(C)[C@H]5[C@H](O)OC[C@@]45[C@@H]2CC[C@@H]1[C@H]3OC(=O)CCCC(=O)OCCCCOc1no[n+]([O-])c1S(=O)(=O)c1ccccc1	MGC-803 gastric cancer cell line	1.49

The reported numbers originate from paper PMC4926326.
